experiment: compound binding in COS7 lysate, probe aLAP1, primary screen, cell lysate, small-molecule microarray (AID 1124); settings: probe aLAP1, fluorescence, higher = more signal;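 further: lysate comes from COS7 cells expressing LAP1 and is applied at 0.3 µg/mL; score merges spot fluorescence near 667 nm with signal-to-noise over triplicate slides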
# binarize composite z-score: threshold 0.06 inclusive, high side T, low side F

[ask] Threshold query (composite z-score >= 0.06) on COc1ccc(C(O)C2C=CC3C(=O)N(C)C(=O)C3N2Nc2ccccc2)cc1OCc1ccccc1 (stereo not drawn)
[reply] F

[ask] Threshold query (composite z-score >= 0.06) on CCCNC(=O)[C@@]1(c2ccc([N+](=O)[O-])cc2)CC(=O)N(CC23CC4CC(CC(C4)C2)C3)[C@@H]1c1ccc(CO)cc1
[reply] T

---

experiment: S. cerevisiae growth modulation with rapamycin, primary screen, strain BY4716, OD600, 96 h (AID 1091); details: higher = more signal, called active from +8 up or from −8 down; further: test concentration not given here
Observable: z-score
Reply: number alone, nothing else.

Cc1c(NC(=O)CC#N)c(=O)n(-c2ccccc2)n1C: -0.722

[ask] Quickly give me recorded z-score for [N-]=[N+]=NCc1ccccc1C[C@]1(C(=O)NCC(O)CO)N=C(c2ccc(OCCCO)cc2)O[C@H]1c1ccccc1N=[N+]=[N-] (stereo partly drawn)
[reply] 2.77

[ask] Quickly give me recorded z-score for CC(=O)NCCCC[C@@H]1NC(=O)[C@H]2C[C@@H](C(=O)NCCCCCC[N+](C)(C)C)[C@@H](c3cccc(OCCO)c3)N2C1=O
[reply] -0.425

[ask] Quickly give me recorded z-score for CCCCC(O)C1C=CC2C(=O)N(C3CCCCC3)C(=O)C2N1Nc1ccc(OC)cc1 (stereo not drawn)
[reply] 1.15

[ask] Quickly give me recorded z-score for NC(=O)NCC#Cc1ccc2c(c1)[C@]1(C(=O)N2)[C@H](C(=O)NC[C@H](O)c2ccccc2)[C@H]2C(=O)O[C@H](c3ccccc3)[C@H](c3ccccc3)N2[C@@H]1c1ccc(O)cc1
[reply] 3.72

[ask] Quickly give me recorded z-score for C=CCC(OC(C)=O)[C@@H]1[C@@H](N(Cc2cc3ccccc3o2)C(=O)c2ccc(C)cc2)c2cc(OCCCO)ccc2N1C(=O)c1ccc2ccccc2c1 (stereo partly drawn)
[reply] 0.0217

[ask] Quickly give me recorded z-score for COCCOC(=O)N1C(=O)[C@@]2(c3cc(C#CCNC(N)=O)ccc31)[C@H](c1ccc(O)cc1)N1[C@H](c3ccccc3)[C@H](c3ccccc3)OC(=O)[C@H]1[C@@H]2C(=O)NC[C@H](O)c1ccccc1
[reply] 0.611

[ask] Quickly give me recorded z-score for Cc1ccc(S[C@]2(C(=O)O)CC(=O)N(C3Cc4ccccc4C3)[C@@H]2c2ccc(CO)cc2I)cc1
[reply] 1.6

[ask] Quickly give me recorded z-score for CC(C)(C)OC(=O)CC[C@@]1(C(=O)NCCN2CCOCC2)N=C(c2ccc(OCCCO)cc2)O[C@@H]1c1ccccc1
[reply] -0.552

[ask] Quickly give me recorded z-score for C=CCC(OC(C)=O)[C@@H]1[C@@H](N(Cc2ccc(-c3ccccc3)cc2)C(=O)Cc2ccc(OC)cc2)c2cc(OCCCO)ccc2N1C(=O)c1ccc2ccccc2n1 (stereo partly drawn)
[reply] -0.551

[ask] Quickly give me recorded z-score for COCCOC(=O)N1C(=O)[C@@]2(c3cc(C#CC4=CCCCC4)ccc31)[C@H](C(=O)N1CCc3cc(OC)c(OC)cc3C1)[C@H]1C(=O)O[C@H](c3ccccc3)[C@H](c3ccccc3)N1[C@@H]2c1ccccc1OCCO
[reply] 2.78

[ask] Quickly give me recorded z-score for COc1cc2c(cc1OC)CN(C(=O)[C@@H]1[C@H]3C(=O)O[C@H](c4ccccc4)[C@H](c4ccccc4)N3[C@H](c3ccccc3OCCO)[C@@]13C(=O)Nc1ccc(C#CCNC(N)=O)cc13)CC2
[reply] 3.09

[ask] Quickly give me recorded z-score for COc1cccc(C(=O)O[C@H]2CC[C@]3(C)C4=C(CCC3C2(C)C)[C@]2(C)CC[C@H]([C@H](C)CCCC(C)C)[C@@]2(C)CC4)c1 (stereo partly drawn)
[reply] -0.166

[ask] Quickly give me recorded z-score for CC(=O)Nc1cc(Br)ccc1C(=O)O
[reply] 0.178

[ask] Quickly give me recorded z-score for COCCOC(=O)N1C(=O)[C@@]2(c3cc(C#CCCO)ccc31)[C@H](c1ccccc1OCCO)N1[C@H](c3ccccc3)[C@H](c3ccccc3)OC(=O)[C@H]1[C@@H]2C(=O)N1CCN(c2ncccn2)CC1
[reply] 3.94

[ask] Quickly give me recorded z-score for O=C1OCCC/C=C\[C@H]2OC34C=CCN(Cn5nnc6ccccc65)C(=O)[C@H]3N(CCCCCO)C(=O)[C@@H]4C12 (stereo partly drawn)
[reply] -1.83

[ask] Quickly give me recorded z-score for C=C(COC)C(=O)CC[C@@H](OC(=O)c1cccnc1)c1ccc(CO)o1
[reply] -0.336

[ask] Quickly give me recorded z-score for C=C(C(=O)CC[C@H](OC(C)=O)c1ccc(OCCO)cc1)C(C)C
[reply] -4.29

---

biological target: Focal adhesion kinase 1 (Homo sapiens); assay: small-molecule microarray binders of FAK, primary screen, biochemical, 635/667 nm fluorescence, BSA, DTT (AID 1130); settings: PTK2 binding, 635 nm fluorescence, higher = more signal;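 further: composite of spot emission at 667 nm and signal to noise over triplicate slides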
Observable: composite z-score
Reply: number alone, nothing else.

CC1CC/C=C\[C@H]2OC34C=CCN(Cc5ccccc5)C(=O)[C@H]3N(CCCCCO)C(=O)[C@@H]4C2C(=O)O1 (stereo partly drawn): 1.19
O=C(CCN1CCOCC1)c1cccc(O)c1: 0.531
COCC(=C=CC[C@@H](O)c1ccc(CO)o1)CCO: -0.29
CC(C)OC(=O)CC(=O)CC(O)c1ccc(C#N)cc1 (stereo not drawn): 0.762
COc1ccc([Si](C)(C)[C@@H]2[C@@H](CCn3cc([C@H](O)c4ccccc4)nn3)O[C@]3(C(=O)N(Cc4cccc(N5CCOC5=O)c4)c4ccccc43)[C@H]2C)cc1: -0.753

[ask] Quickly give me recorded composite z-score for C#CCN(C(/C=C/c1ccccc1)CO)C(C(=O)O)c1ccccc1 (stereo not drawn)
[reply] 0.492

[ask] Quickly give me recorded composite z-score for COCCOC(=O)N1C(=O)[C@@]2(c3cc(C#Cc4ccc(OC)cc4)ccc31)[C@H](C(=O)N1CCN(c3ncccn3)CC1)[C@H]1C(=O)O[C@H](c3ccccc3)[C@H](c3ccccc3)N1[C@@H]2c1ccc(O)cc1
[reply] 1.2

[ask] Quickly give me recorded composite z-score for NCCCCCCNC(=O)[C@H]1C[C@H]2C(=O)NCC(=O)N2[C@H]1c1cccc(OCCO)c1
[reply] 0.215

---

assay: HepG2 liver cancer cell viability effects, profiling panel, resazurin fluorescence, 24 h, PK04 Diversity Set (AID 1172); conditions: higher = more signal; further: test concentration not given here
Observable: z-score
Reply: number alone, nothing else.

Example entries and their recorded answers appear below.
COC(=O)C(CC#Cc1ccc2c(c1)[C@]1(C(=O)N2)[C@H](c2ccc(OCCO)cc2)N2[C@H](c3ccccc3)[C@H](c3ccccc3)OC(=O)[C@H]2[C@@H]1C(=O)NC[C@H](O)c1ccccc1)C(=O)OC: 0.722
O=C1O[C@H](c2ccccc2)[C@H](c2ccccc2)N2[C@H]1[C@@H](C(=O)NC[C@H](O)c1ccccc1)[C@]1(C(=O)Nc3ccc(C#CCCO)cc31)[C@H]2c1ccc(O)cc1: -0.0297
Cc1ccc(S[C@]2(C(=O)NCc3ccccc3)CC(=O)N(Cc3ccccc3Cl)[C@@H]2c2ccc(CO)cc2I)cc1: 1.21

[ask] Quickly give me recorded z-score for CC(C)CNC(=O)[C@@H]1c2ccccc2C(=O)N(Cc2cc(C(F)(F)F)cc(C(F)(F)F)c2)[C@H]1c1ccc(CO)cc1
[reply] -1.16

[ask] Quickly give me recorded z-score for CCC[C@@H]1C=C(C(=O)O)[C@H](c2ccc(C)cc2)N1S(=O)(=O)c1ccc(C)cc1
[reply] -0.795

---

test: anti-His antibody binders, primary screen, artefact control for SMM control protein annotation, biochemical, small-molecule microarray, 635 nm fluorescence (AID 1128); conditions: anti-His Alexa647 antibody binding, higher = more signal;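 further: score merges feature fluorescence with signal-to-noise for each printed compound spot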
Observable: composite z-score
Reply: number alone, nothing else.

Example entries and their recorded answers appear below.
O=C1C[C@]2(c3ccc([N+](=O)[O-])cc3)C(=O)N(CC(F)(F)F)c3cc(CO)ccc3[C@H]2N1CC12CC3CC(CC(C3)C1)C2: -0.239
Cc1cc(C)cc(N2C(=O)CS(=O)(=O)C2c2cccc([N+](=O)[O-])c2)c1 (stereo not drawn): 1.11
CCCN1C(=O)[C@]2(COC(c3ccc(OCCCO)cc3)=N2)Cc2ccccc21: 2.63
O=C(CCN1CCOCC1)c1cccc(O)c1: 1.52
CC(C)c1ccc(NN2C(C(O)c3cccc(O)c3)C=CC3C(=O)N(c4ccccc4)C(=O)C32)cc1 (stereo not drawn): 1.16

[ask] Quickly give me recorded composite z-score for N#Cc1ccc(NN2C(C(O)C3CCCCC3)C=CC3C(=O)N(c4ccccc4)C(=O)C32)cc1 (stereo not drawn)
[reply] 0.422

[ask] Quickly give me recorded composite z-score for COC(=O)c1c(CC[C@@H](CO)NC(=O)N[C@@H](Cc2ccccc2)Cn2cc(C3(O)CCCCC3)nn2)oc(C(C)=O)c1C(=O)OC
[reply] 1.37

[ask] Quickly give me recorded composite z-score for CCOC(=O)C1=CC[C@@H](c2ccccc2Cl)N(S(=O)(=O)c2ccc(C)cc2)C1
[reply] 1.15

[ask] Quickly give me recorded composite z-score for C=CCC(OC(C)=O)[C@@H]1[C@@H](N(Cc2cccc3ccccc23)C(=O)c2cccc3ccccc23)c2cc(OCCCO)ccc2N1C(=O)c1ccc2ccccc2n1 (stereo partly drawn)
[reply] 0.833

[ask] Quickly give me recorded composite z-score for COC(=O)c1ccc(C23CC2(C(NP(=O)(c2ccccc2)c2ccccc2)c2ccccc2)C3)cc1 (stereo not drawn)
[reply] 2.12
